Test system: PC12 cells
Assay: Activity to accelerate neurite outgrowth (NGF-treated PC12 cells)
Format: cell-based, rat
Details: test compound 10 μM with 2.5s-NGF 40 ng/mL, 48 hours; neutrite outgrowth rate due to NGF taken as 100%
Structures can show the parent of a compound that is named as a salt.
I'd be grateful if you could share measured neutrite outgrowth acceleration rate for these entries.
Remember to follow the number with its unit.

# input Give neutrite outgrowth acceleration rate (PC12 cells) of the following molecule: OC1CN(CCOCCc2ccc3sccc3c2)C1 [Example 2, hydrochloride]
# output 265%

# input Give neutrite outgrowth acceleration rate (PC12 cells) of the following molecule: OC1CN(CCCOCCc2csc3ccccc23)C1 [Example 14, hydrochloride]
# output 207%

# input Give neutrite outgrowth acceleration rate (PC12 cells) of the following molecule: NC1CCN(CCCOCCc2ccc3sccc3c2)C1 (stereo not drawn) [Example 74, oxalate]
# output 246%
